biological target: INDY (Homo sapiens, UniProt Q86YT5); test: 14C-citrate uptake in HEK293 cells overexpressing recombinant human INDY (NaCT); format: cell-based; set-up: expressed in transfected cells; host or cells: HEK293
Sequence (Q86YT5 whole entry): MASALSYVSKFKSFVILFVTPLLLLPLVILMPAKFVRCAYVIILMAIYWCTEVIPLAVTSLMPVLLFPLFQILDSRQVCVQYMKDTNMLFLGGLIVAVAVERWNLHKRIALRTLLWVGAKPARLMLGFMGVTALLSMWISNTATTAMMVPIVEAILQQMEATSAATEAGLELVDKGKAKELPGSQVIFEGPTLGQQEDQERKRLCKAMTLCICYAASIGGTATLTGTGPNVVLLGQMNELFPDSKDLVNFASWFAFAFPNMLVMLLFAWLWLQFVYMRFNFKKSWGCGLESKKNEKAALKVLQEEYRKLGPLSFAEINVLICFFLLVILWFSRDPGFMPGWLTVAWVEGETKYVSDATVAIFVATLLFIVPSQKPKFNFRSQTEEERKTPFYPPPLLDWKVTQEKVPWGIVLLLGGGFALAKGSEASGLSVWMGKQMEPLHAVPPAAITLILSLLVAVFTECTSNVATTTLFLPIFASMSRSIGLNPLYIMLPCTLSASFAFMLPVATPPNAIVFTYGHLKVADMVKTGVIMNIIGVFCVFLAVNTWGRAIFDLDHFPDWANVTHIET
measurement-type: IC50

What IC50 value was documented for this compound, O=C(NCc1ccccc1F)C1CCN(S(=O)(=O)c2ccc(Cl)cc2Cl)CC1 ?
0.3 µM

# input compound: COc1ccccc1CNC(=O)C1CCN(S(=O)(=O)c2ccc(C(C)(C)C)cc2)CC1 ; wanted: its IC50
0.3 µM

I would be grateful if you could share the reported IC50 for COc1ccc(S(=O)(=O)N2CCC(C(=O)NCc3ccccn3)CC2)c(OC)c1 .
> 20 µM

I would be grateful if you could share the reported IC50 for O=C(NCc1ccccc1F)C1CCN(S(=O)(=O)c2ccc3c(c2)OCO3)CC1 .
5.2 µM

Fill in the blank: the reported IC50 of O=C(NCc1ccccn1)C1CCN(S(=O)(=O)c2cc(F)cc(C(F)(F)F)c2)CC1 is ____.
4.3 µM

Query: IC50; subject: O=C(NCc1ccccn1)C1CCN(S(=O)(=O)c2ccc(CC(F)(F)F)cc2)CC1
6.3 µM

Any idea what IC50 was measured for COc1ccccc1CNC(=O)C1CN(S(=O)(=O)c2ccc(C(C)(C)C)cc2)C1 ?
4.4 µM

Entry O=C(NCc1ccc(CO)cc1)C1CCN(S(=O)(=O)c2ccc(C(F)(F)F)cc2)CC1 : reported IC50 = ?
> 20 µM

What value of IC50 has been reported for the following compound? O=C(O)c1cccc(S(=O)(=O)N2CCC(C(=O)NCc3ccccc3F)CC2)c1
> 20 µM

Can you look up the measured IC50 of CN(C)CCOc1ccc(S(=O)(=O)N2CCC(C(=O)NCc3ccccc3F)CC2)cc1 for me?
> 20 µM

Please look up its IC50: O=C(NCc1ccccn1)C1CCN(S(=O)(=O)c2ccc(C3(C(F)(F)F)CC3)cc2)CC1
0.8 µM

Which IC50 value is on record for O=C(NCc1ccccn1)C1CCN(S(=O)(=O)c2ccc(C3CCCC3)cc2)CC1 ?
1.6 µM

Reported IC50 for COC(=O)c1ccc(S(=O)(=O)N2CCC(C(=O)NCc3ccccc3F)CC2)cc1 : what is it?
> 20 µM

I have this compound here, O=Cc1ccc(S(=O)(=O)N2CCC(C(=O)NCc3ccccc3F)CC2)cc1 , and I need its recorded IC50.
> 20 µM

Need IC50, item N#Cc1ccccc1CNC(=O)C1CCN(S(=O)(=O)/C=C/c2ccccc2)CC1
15.9 µM

I would be grateful if you could share the reported IC50 for O=C(NCc1ccccc1C(F)(F)F)C1CCN(S(=O)(=O)/C=C/c2ccccc2)CC1 .
> 20 µM

For the compound shown here, COc1cccc(S(=O)(=O)N2CCC(C(=O)NCc3ccccc3F)CC2)c1 , give the reported IC50.
1.4 µM

---

Exercise: state measured log10 IC50 for each of the compounds provided.
target: INDY (Homo sapiens, UniProt Q86YT5); experiment: 14C-citrate uptake in HEK293 cells overexpressing recombinant human INDY (NaCT); type: cell-based; parameters: expressed in transfected cells; host or cells: HEK293
Units before log transform: µM; reported quantity: IC50; transform: log10.

Endpoint output: log10 IC50 of O=C(NCc1cccc(F)c1F)C1CCN(S(=O)(=O)/C=C/c2ccccc2)CC1 . Value?
0.53

Could you share which log10 IC50 value was measured for O=C(NCc1cccc(O)c1)C1CCN(S(=O)(=O)c2cc(Cl)cc(Cl)c2)CC1 ?
-0.15

// log10 IC50 lookup, key: O=C(NCc1ccccn1)C1CCN(S(=O)(=O)c2ccc(OC(F)(F)F)cc2)CC1
0.81

Requested read-out: log10 IC50. Entry: O=C(NCc1ccccn1)C1CCN(S(=O)(=O)c2cccc(C(F)(F)F)c2)CC1
0.76

Form field: reported log10 IC50 of O=C(NCc1ccccn1)C1CCN(S(=O)(=O)c2ccc(C(F)(F)F)cc2)CC1
0.61

// returns reported log10 IC50 for input O=C(NCc1ccccn1)C1CCN(S(=O)(=O)c2cc(F)cc(Cl)c2)CC1
0.69

Tell me the measured log10 IC50 of O=C(NCc1ccccn1)C1CCN(S(=O)(=O)c2ccc(I)cc2)CC1 , please.
0.74

Need log10 IC50, item [N-]=[N+]=NCc1ccccc1CNC(=O)C1CCN(S(=O)(=O)c2cc(Cl)cc(Cl)c2)CC1
0.00

What does the record list as log10 IC50 for CC(C)(C)c1ccc(S(=O)(=O)N2CCC(C(=O)NCc3ccccn3)CC2)cc1 ?
-0.10

Query (compound): O=C(NCc1ccccc1F)C1CCN(S(=O)(=O)c2ccc3c(c2)OC(F)(F)O3)CC1 ; field requested: log10 IC50
-0.15

Suppose we examine the compound O=C(NCc1ccccc1O)C1CCN(S(=O)(=O)c2cc(Cl)cc(Cl)c2)CC1 ; what log10 IC50 value has been reported?
-0.70
